Tested on: human colorectal HT-29 tumor cell line
Experiment: Cell growth inhibition assay (alamar blue)
Assay type: cell-based
Details: HT29, 20 μM, 72 h
measurement.name: % Growth inhibition at 20 μM (%)
Numbers only; they are read as %.

compound: O=C(Nc1ccc(Cl)cc1)Nc1ccc2nc(-c3ccco3)c(-c3ccco3)nc2c1 [7b]
test.target: human colorectal HT-29 tumor cell line
uom: %
% Growth inhibition at 20 μM: 86.3

Note: attention shifts to another entry.
The measured % Growth inhibition at 20 μM associated with O=C(Nc1ccc2nc(-c3ccco3)c(-c3ccco3)nc2c1)N1CCOCC1 [6m] reads 19.4
